# System: SR leukemia
# assay-protocol: NCI tumour cell line growth inhibition, 48 h
Reported TGI values are given for each entry in this list.

Below, 3 molecules whose answers are already recorded.
COc1cc2c(c3c1c(=O)c1ccccc1n3C)C=C([N+](=O)[O-])C(C)(C)O2 = > 100 µM
CC1(C)CCC[C@@]2(C)C1CC[C@@]1(CO)O[C@H](C3=CC(=O)OC3O)C[C@H]12 (some centres not stated) = 7.58 µM
CC(=O)C1(C(=O)C(=[N+]=[N-])S(=O)(=O)c2ccccc2)CC1 = > 100 µM

Q. Return reported TGI; argument: CCOC(=O)C1C(c2ccc(Br)cc2)N(Cc2ccccc2)C(c2ccc(Br)cc2)C(C(=O)OC)S1(=O)=O (configuration not stated)
A. > 100 µM

Q. Field request: TGI | item: CNC(=O)OCc1nc(SSc2nc(COC(=O)NC)c(COC(=O)NC)n2C)n(C)c1COC(=O)NC
A. > 100 µM

Q. # input molecule: CCOC(=O)c1cn(C)c2c(OC)c3ccccc3c(OC)c2c1=O ; wanted: its TGI
A. 88.6 µM

Q. I have this molecule here, COC(=O)Nc1cc(OCCCOC(C)=O)c2[nH]c(C(=O)OC)cc2c1C[C@H](O)CO , and I need its recorded TGI.
A. > 100 µM

Q. // lookup TGI for Nc1ncnc2c1c(-c1ccc(Oc3ccccc3)cc1)nn2CC1SSCC1O (configuration not stated)
A. 2.11 µM

Q. Look at this molecule and give its reported TGI. CC(C)(C)C1=NO[C@H]2[C@@H](NC(=O)c3ccccc3)CC[C@@H]12
A. > 100 µM

Q. Any idea what its TGI is? The molecule is OCc1ccc(-c2ccc(-c3ccc(CO)o3)o2)o1
A. > 100 µM

Q. Item C/C(=N\NC(=S)NC(C)(C)C)c1nc2ncccc2[nH]1 has what recorded TGI?
A. > 72.2 µM

Q. Could you share which TGI value was measured for COC(=O)c1c(O)ccc2c1c1c(n2Cc2ccc(OC)cc2)C(=O)c2ccccc2C1 ?
A. > 100 µM

Q. // query TGI value for entry CN(C)c1cccc2c(S(=O)(=O)NCCN)cccc12
A. > 100 µM

Q. Which TGI reading was recorded for the molecule CC(C)Oc1cccc(N2C(CCc3c[nH]c4ccc(Br)cc34)=NS(=O)(=O)c3cnccc32)c1 ?
A. > 100 µM

Q. # input molecule: CC1(C)N=C(/C(Cl)=[N+](/[O-])C(=O)c2ccc(Cl)cc2)C(C)(C)N1O ; wanted: its TGI
A. > 100 µM

Q. What does the data say about its TGI? Entry: CCOC(=O)[C@@H](C)C[C@H](Cc1ccccc1)NC(=O)c1csc([C@@H](C[C@H](C(C)C)N(C)C(=O)CNC(=O)[C@H]2CCCCN2C)OC(C)=O)n1
A. > 14.3 µM

Q. Quick one: TGI of COc1c(OC2OC(CO)C(O)C(O)C2O)cc2c(c1OC)-c1ccc(OC)c(=O)cc1C(NC(C)=O)CC2 (configuration not stated) ?
A. > 100 µM

Origin of measurements: PubChem BioAssay (NCI)
